Listing of entries alongside the reported SH2 binding enrichment.
System under test: Grb2 SH2 (UniProt P62993)
Sequence (P62993 whole entry, looked up): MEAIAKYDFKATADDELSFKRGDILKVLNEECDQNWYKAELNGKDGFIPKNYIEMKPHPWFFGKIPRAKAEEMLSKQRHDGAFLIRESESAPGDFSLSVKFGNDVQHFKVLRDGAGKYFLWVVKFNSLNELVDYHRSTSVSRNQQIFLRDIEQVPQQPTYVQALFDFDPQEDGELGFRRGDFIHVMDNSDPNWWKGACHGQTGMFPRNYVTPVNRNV
Assay remarks: SH2 binding enrichment of the phosphorylated peptide, bacterial display (enrichment ratio); higher = better substrate or ligand; peptides without Tyr show the background
# respond with the number and nothing more

Examples from the recorded data:
- FKELVYETVRV [FSHB_Y76]: 0.751
- KPVEEYANCHL [TF_Y593]: 1.1
- TVFENYVADIK [RHOA_Y42_E47K]: 0.846

Below: the item to evaluate.
Entry under review: CHKRTYKVTGL . Reported SH2 binding enrichment?
1.13

---

System under test: Jak2 (UniProt O60674)
Sequence (O60674 whole entry, looked up): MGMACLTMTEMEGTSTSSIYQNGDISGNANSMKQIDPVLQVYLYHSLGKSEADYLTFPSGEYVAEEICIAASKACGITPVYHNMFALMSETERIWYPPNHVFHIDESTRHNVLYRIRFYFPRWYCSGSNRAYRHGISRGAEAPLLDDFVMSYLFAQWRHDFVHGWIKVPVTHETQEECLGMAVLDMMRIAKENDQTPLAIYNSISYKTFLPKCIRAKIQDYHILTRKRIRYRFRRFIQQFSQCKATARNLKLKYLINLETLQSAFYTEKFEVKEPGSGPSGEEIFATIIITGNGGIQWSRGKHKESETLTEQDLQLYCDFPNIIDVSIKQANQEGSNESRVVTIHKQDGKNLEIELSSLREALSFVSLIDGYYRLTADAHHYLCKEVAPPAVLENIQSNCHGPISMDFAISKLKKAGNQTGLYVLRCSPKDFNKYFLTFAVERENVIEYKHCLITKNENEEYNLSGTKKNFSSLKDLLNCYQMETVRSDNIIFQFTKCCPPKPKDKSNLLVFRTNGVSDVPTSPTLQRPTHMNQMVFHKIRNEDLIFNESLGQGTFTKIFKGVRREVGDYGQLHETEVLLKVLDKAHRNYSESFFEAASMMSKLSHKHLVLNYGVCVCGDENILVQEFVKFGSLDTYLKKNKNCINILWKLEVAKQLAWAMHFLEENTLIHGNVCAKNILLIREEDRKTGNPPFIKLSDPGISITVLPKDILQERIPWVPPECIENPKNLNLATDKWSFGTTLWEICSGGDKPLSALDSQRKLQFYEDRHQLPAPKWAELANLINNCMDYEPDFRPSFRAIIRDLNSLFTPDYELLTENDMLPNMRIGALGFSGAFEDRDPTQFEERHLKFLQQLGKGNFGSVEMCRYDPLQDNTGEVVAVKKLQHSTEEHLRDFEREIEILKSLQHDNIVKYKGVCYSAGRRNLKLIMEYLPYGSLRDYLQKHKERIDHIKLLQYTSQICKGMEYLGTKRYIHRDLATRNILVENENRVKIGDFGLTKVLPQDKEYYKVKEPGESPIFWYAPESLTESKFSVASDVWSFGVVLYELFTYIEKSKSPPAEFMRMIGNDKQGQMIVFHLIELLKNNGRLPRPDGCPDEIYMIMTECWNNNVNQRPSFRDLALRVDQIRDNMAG
Assay remarks: phosphorylation enrichment, bacterial display (enrichment ratio); higher = better substrate or ligand; peptides without Tyr show the background
Listing of entries alongside the reported phosphorylation enrichment.
# respond with the number and nothing more

• EASGIYVKSVI [PATJ_Y396_I400V] = 0.97
• GEIQEYGAPLD [ABCC1_Y1508_S1512L] = 1.03
• GEVKAYGAGLL [TH_Y419] = 0.498
• GEHSIYSTVNN [CD55_Y266_C267S] = 0.536
• GPGGDYAAMGA [ERBB3_Y1276] = 0.604
• VDDQIYFFRKP [PBRM1_Y1289_E1287Q_YF] = 1.61

Below: the item to evaluate.
Request body: readout phosphorylation enrichment, system Jak2 (UniProt O60674), query KSEKVYTRHGV [FLOT1_Y56] . Return the value.
0.444

---

System under test: Fyn (UniProt P06241)
Sequence (P06241 whole entry, looked up): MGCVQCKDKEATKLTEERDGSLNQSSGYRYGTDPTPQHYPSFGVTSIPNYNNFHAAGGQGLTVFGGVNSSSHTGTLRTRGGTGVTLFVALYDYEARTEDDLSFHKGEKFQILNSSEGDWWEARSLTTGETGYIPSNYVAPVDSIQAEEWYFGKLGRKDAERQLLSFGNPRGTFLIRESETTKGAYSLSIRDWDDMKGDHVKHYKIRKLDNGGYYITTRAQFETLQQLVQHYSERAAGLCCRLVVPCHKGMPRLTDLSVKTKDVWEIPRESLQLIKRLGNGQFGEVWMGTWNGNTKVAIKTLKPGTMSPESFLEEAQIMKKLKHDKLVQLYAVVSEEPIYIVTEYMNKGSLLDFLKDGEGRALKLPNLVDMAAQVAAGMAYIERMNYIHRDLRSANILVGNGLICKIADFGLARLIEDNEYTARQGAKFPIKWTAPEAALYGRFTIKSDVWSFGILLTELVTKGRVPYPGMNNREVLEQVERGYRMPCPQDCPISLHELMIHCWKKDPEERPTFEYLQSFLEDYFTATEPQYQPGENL
Assay remarks: phosphorylation enrichment, bacterial display (enrichment ratio); higher = better substrate or ligand; peptides without Tyr show the background
I would appreciate it if you labelled entries YES when phosphorylation enrichment is 0.4 or higher, otherwise NO.

Please review the following examples before continuing.
* SREALYNETDP [CACNA1A_Y794_M797T] | YES
* LGNIVYSSLCG [BCOR_Y90_P85L] | YES
* PAKPRYRARQR [KCNJ11_Y26_E23K] | YES
* ILTLKYPIELG [ACTA1_Y71_H75L] | YES
* VAVVQYSGTGQ [COL6A1_Y878] | NO
* YYHCTYKQRMI [CLEC12A_Y242_K244Q] | YES
* SAGSSYSISSI [PAX5_Y179_G183S] | YES
* FIGVTYKNKED [PDGFRA_Y993_E996K_YF] | YES
* TLSGIYQFIIA [FOXL2_Y81_YF] | YES
* IKKFKYGIEEH [GJA1_Y137] | NO

Is phosphorylation enrichment at least 0.4? Consider IAKNPYDPPGR
NO

Is phosphorylation enrichment at least 0.4? Consider RFLERYIYNPE [HLA-DPB1_Y57_R61P]
YES

Is phosphorylation enrichment at least 0.4? Consider TNYSLYLRSLE [MTM1_Y71_R69S]
YES

Is phosphorylation enrichment at least 0.4? Consider RRRLIYRCQVG [NR2E3_Y81]
YES

Is phosphorylation enrichment at least 0.4? Consider CTTIHYNNMCN [TP53_Y234_Y236N]
YES

Is phosphorylation enrichment at least 0.4? Consider IEKLPYIDKWF [CPS1_Y872_T871P]
NO

Is phosphorylation enrichment at least 0.4? Consider GIVEDYRPPFY [ACVRL1_Y421]
YES

---

System under test: Jak2 (UniProt O60674)
Assay remarks: phosphorylation enrichment, bacterial display (enrichment ratio); higher = better substrate or ligand; peptides without Tyr show the background
Listing of entries alongside the reported phosphorylation enrichment.
# respond with the number and nothing more

• AFPGEYIPTVF [RAC1_Y32] = 0.924
• FTGDIYSSSNL [LZTR1_Y141_N143S_YF] = 0.588
• ITRDIYETDFF [INSR_Y1185_M1180I_YF] = 1.16
• LAAAGYDVKKN [H1-3_Y72_E75K] = 0.381

Request body: readout phosphorylation enrichment, system Jak2 (UniProt O60674), query GCRSKYVGLWG [KCNQ1_Y184] . Return the value.
0.605

Request body: readout phosphorylation enrichment, system Jak2 (UniProt O60674), query ANNEYYFQVCA . Return the value.
1.68

Request body: readout phosphorylation enrichment, system Jak2 (UniProt O60674), query GDEEDYEEIPG [EGFR_opt_E_2015] . Return the value.
1.36

Request body: readout phosphorylation enrichment, system Jak2 (UniProt O60674), query IGCHAYGDQFR [IDH1_Y135_R132C_YF] . Return the value.
0.933

Request body: readout phosphorylation enrichment, system Jak2 (UniProt O60674), query TLNVRHESVQA [CEACAM7_Y236_Y236H] . Return the value.
0.831

Request body: readout phosphorylation enrichment, system Jak2 (UniProt O60674), query DGTIVCTGLET [USH2A_Y4487_Y4487C] . Return the value.
1.06

---

System under test: Jak2 (UniProt O60674)
Assay remarks: phosphorylation enrichment, bacterial display (enrichment ratio); higher = better substrate or ligand; peptides without Tyr show the background
Listing of entries alongside the reported phosphorylation enrichment.
# respond with the number and nothing more

Entry under review: HDRNTYEKFLE [TF_Y666_G671E_YF] . Reported phosphorylation enrichment?
0.859

Entry under review: HEGKIYEYNQV [ZNF665_Y162] . Reported phosphorylation enrichment?
1.39

Entry under review: NRDNTYNPVSE [FGA_Y127_R129P] . Reported phosphorylation enrichment?
0.699

Entry under review: SFLFRYADDSF [RAB3C_Y50] . Reported phosphorylation enrichment?
0.835

Entry under review: NQILPYIKELV [PPP2R1B_Y341] . Reported phosphorylation enrichment?
1.08

---

Tested on: Fer (mouse)
Assay remarks: phosphorylation enrichment, bacterial display (enrichment ratio); higher = better substrate or ligand; peptides without Tyr show the background
Listing of entries alongside the reported phosphorylation enrichment.

Examples from the recorded data:
• LDLPGYCLLRE [CCDC116_Y291_P293L] = 1.63
• NDKLCYEVSSP [CDH13_Y66_R65C] = 0.883
• YSTDCYRVGGH [NTRK2_Y707_Y706C] = 0.414
• KLPFPYDDPFS [GPX2_Y127_YF] = 0.772
• EAESWYQTKFE [KRT75_Y342_YF] = 0.624

Entry under review: EFNLMYDGTKE [IRF6_Y97] . Reported phosphorylation enrichment?
0.479

Entry under review: LIYTNYEVGKD [GSTP1_Y112_A114V] . Reported phosphorylation enrichment?
17.7

Entry under review: DLRGIYQKLVI . Reported phosphorylation enrichment?
7.47

---

System under test: Fes (UniProt P07332)
Sequence (P07332 whole entry, looked up): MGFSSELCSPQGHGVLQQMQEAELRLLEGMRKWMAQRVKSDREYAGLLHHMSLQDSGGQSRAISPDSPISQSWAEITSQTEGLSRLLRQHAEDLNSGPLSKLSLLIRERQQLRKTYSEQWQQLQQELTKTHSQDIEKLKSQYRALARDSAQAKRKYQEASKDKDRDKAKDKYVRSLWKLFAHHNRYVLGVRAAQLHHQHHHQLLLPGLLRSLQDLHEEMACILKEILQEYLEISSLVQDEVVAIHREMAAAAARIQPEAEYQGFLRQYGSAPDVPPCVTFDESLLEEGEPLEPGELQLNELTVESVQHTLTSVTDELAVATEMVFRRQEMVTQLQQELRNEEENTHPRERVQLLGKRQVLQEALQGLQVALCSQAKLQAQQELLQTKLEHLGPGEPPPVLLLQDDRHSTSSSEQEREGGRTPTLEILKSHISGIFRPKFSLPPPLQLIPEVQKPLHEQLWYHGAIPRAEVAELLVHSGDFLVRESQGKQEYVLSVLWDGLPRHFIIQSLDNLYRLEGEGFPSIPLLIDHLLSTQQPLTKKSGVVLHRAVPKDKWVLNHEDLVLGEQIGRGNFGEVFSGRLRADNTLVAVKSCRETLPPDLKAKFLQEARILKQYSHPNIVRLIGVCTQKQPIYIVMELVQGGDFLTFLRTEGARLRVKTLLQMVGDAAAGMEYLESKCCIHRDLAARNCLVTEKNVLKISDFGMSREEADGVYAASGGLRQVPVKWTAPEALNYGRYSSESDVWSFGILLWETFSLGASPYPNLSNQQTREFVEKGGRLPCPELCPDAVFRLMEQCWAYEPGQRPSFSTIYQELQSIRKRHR
Assay remarks: phosphorylation enrichment, bacterial display (enrichment ratio); higher = better substrate or ligand; peptides without Tyr show the background
I would appreciate it if you labelled entries true (1) when phosphorylation enrichment is 0.8 or higher, otherwise false (0).

Is phosphorylation enrichment at least 0.8? Consider LSQAKYQIRYR [CRLF1_Y272_F268S]
false (0)

---

System under test: Hck (UniProt P08631)
Sequence (P08631 whole entry, looked up): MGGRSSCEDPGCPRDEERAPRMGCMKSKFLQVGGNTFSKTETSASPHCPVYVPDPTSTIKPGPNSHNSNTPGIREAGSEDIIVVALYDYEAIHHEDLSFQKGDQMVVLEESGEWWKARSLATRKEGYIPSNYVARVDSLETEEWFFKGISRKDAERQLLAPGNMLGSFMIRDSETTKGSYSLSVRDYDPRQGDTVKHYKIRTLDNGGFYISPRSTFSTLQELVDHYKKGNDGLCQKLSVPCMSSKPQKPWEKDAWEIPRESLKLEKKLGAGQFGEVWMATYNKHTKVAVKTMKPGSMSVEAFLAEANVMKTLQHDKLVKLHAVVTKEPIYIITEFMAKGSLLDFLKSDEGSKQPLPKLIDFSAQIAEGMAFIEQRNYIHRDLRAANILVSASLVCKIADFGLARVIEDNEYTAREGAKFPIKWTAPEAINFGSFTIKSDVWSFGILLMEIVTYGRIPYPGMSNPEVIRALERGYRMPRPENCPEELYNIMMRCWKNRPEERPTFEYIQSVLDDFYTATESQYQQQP
Assay remarks: phosphorylation enrichment, bacterial display (enrichment ratio); higher = better substrate or ligand; peptides without Tyr show the background
Listing of entries alongside the reported phosphorylation enrichment.
# respond with the number and nothing more

Entry under review: FAFQLYDLDRD [CHP2_Y123_YF] . Reported phosphorylation enrichment?
1.03

Entry under review: PTQLPYDHKWK [KIT_Y578_E583K] . Reported phosphorylation enrichment?
0.397

Entry under review: RFLERYIYNPE [HLA-DPB1_Y57_R61P] . Reported phosphorylation enrichment?
2.11

Entry under review: PCPANYFAFKI [FAM3D_Y65] . Reported phosphorylation enrichment?
1.34

---

System under test: EPHB2 (UniProt P29323)
Sequence (P29323 whole entry, looked up): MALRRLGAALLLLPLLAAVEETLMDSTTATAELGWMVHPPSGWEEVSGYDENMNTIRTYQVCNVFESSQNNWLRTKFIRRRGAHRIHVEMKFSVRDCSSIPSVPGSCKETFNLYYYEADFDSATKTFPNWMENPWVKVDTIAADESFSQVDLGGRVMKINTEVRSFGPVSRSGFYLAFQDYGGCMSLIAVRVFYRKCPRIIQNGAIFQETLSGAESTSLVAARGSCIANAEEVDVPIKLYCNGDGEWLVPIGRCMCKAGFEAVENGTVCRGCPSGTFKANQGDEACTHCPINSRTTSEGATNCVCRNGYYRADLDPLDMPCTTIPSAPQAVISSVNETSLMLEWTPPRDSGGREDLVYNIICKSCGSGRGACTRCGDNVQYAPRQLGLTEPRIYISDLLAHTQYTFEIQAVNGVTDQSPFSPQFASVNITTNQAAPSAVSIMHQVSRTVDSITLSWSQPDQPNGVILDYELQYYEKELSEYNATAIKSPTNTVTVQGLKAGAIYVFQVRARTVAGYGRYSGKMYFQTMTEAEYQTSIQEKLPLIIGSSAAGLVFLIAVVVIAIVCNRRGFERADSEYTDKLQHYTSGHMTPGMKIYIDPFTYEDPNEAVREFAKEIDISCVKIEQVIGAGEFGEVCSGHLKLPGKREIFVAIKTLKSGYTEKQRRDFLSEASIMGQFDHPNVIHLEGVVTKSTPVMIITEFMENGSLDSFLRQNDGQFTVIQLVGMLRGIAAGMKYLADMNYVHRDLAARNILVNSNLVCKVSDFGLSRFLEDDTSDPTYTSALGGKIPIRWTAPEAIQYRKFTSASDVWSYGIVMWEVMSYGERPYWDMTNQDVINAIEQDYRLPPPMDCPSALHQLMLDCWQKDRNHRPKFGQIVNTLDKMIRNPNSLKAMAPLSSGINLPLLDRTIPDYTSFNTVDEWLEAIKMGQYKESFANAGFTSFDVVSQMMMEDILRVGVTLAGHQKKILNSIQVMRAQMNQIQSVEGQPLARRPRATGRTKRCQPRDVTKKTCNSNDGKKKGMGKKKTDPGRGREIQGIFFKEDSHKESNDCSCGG
Assay remarks: phosphorylation enrichment, bacterial display (enrichment ratio); higher = better substrate or ligand; peptides without Tyr show the background
Listing of entries alongside the reported phosphorylation enrichment.
# respond with the number and nothing more

Examples from the recorded data:
* YETSHYPASPD [CTNND2_Y1217] | 0.512
* LERFIYNREEF [HLA-DPB1_Y59_F64Y_YF] | 0.76

Entry under review: AGQEKYSAMRD [HRAS_Y64_E63K] . Reported phosphorylation enrichment?
0.424

Entry under review: WEQELYSQLVF [WAS_Y102_YF] . Reported phosphorylation enrichment?
11.6

Entry under review: DLGIQYKVLKP [CTNNA1_Y177_A179V] . Reported phosphorylation enrichment?
0.624

Entry under review: DAVAVYHGKIS [SH2D1A_Y7] . Reported phosphorylation enrichment?
0.442

Entry under review: SSYSRYIMMPN [LEF1_Y114_G113R] . Reported phosphorylation enrichment?
1.84

Entry under review: NTGDYYDLYGG [PTPN11_Y63] . Reported phosphorylation enrichment?
14.4

Entry under review: RRRLIYRCQVG [NR2E3_Y81] . Reported phosphorylation enrichment?
0.983

Entry under review: ASLEAYCKHKF [RXRA_Y403_YF] . Reported phosphorylation enrichment?
0.66
